target: von Willebrand factor (VWF) (Homo sapiens, UniProt P04275 P04275:764-2813); assay: filter; Bmax 70%; 20 mM HEPES pH 7.4, 150 mM NaCl, 2 mM CaCl2, 0.01% BSA, 37 C; settings: tags: factor VIII free, Haematologic Technologies Inc; label: 5'-32P
measure: pKd
Quick note: pKd means taking -log10 of the concentration in moles per liter.

response.value for VWF9.14 full length (ssRNA, 2'-F C and U; 2'-OH A and G) RNA: GGGAGGACGAUGCGGUGGACGAACUGCCCUCAGCUACUUUCAUGUUGCUGACGCACAGACGACUCGCUGAGGAUCCGAGA (field: pKd) = 7.92

Reference source: patent US20190218553
